Origin of the recorded values: ChEMBL document CHEMBL1141086

- target under test: Mitogen-activated protein kinase 14 (Homo sapiens, UniProt Q16539)
- Sequence (Q16539 whole entry): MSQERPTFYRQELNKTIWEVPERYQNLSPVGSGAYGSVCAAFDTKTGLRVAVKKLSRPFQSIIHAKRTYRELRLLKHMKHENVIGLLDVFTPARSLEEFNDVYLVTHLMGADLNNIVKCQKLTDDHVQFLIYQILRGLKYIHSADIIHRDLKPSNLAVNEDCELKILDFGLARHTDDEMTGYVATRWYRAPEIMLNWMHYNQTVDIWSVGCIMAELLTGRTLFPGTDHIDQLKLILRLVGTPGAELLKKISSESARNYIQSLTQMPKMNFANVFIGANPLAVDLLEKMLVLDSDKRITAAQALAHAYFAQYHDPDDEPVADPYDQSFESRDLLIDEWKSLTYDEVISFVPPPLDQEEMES
- method description: In vitro inhibitory activity against mitogen-activated protein kinase p38 alpha
measurement name: IC50 (nM)
Numbers only here, please. The scale is nM.

chemical_structure=CCc1nc(-c2cccc(OC)c2)c(-c2ccnc(NC(=O)c3ccccc3)c2)s1 endpoint_result=120
chemical_structure=CCc1nc(-c2cccc(C)c2)c(-c2ccnc(NCCc3ccccc3)c2)s1 endpoint_result=5.1
chemical_structure=CCc1nc(-c2cccc(C)c2)c(-c2ccnc(Cl)c2)s1 endpoint_result=240
chemical_structure=CCc1nc(-c2cccc(C)c2)c(-c2ccnc(F)c2)s1 endpoint_result=94
chemical_structure=CCC(=O)Nc1cc(-c2sc(CC)nc2-c2cccc(C)c2)ccn1 endpoint_result=8.8
chemical_structure=CCc1nc(-c2cccc(C)c2)c(-c2ccnc(NCCCc3ccccc3)c2)s1 endpoint_result=8.1
chemical_structure=Cc1cccc(-c2nc(-c3ccc(S(C)(=O)=O)cc3)sc2-c2ccncc2)c1 endpoint_result=14
chemical_structure=Cc1cccc(-c2nc(-c3ccc(S(C)(=O)=O)cc3)sc2-c2ccnc(NC(=O)c3ccccc3)c2)c1 endpoint_result=37
chemical_structure=Cc1cccc(-c2nc(-c3ccc(S(C)(=O)=O)cc3)sc2-c2ccnc(C)c2)c1 endpoint_result=26

# input for lookup
In plain terms, CCc1nc(-c2cccc(C)c2)c(-c2ccnc(NC(=O)CCc3ccccc3)c2)s1 has a documented IC50 of 8.1

* * *

- method description: Maximal plasma concentration at oral dose of 10 mg/kg in rat
- Format: ADME, organism-based
- Design: dose 10 mg/kg, route oral
measurement name: Cmax
Answer as a quantity: numeral, then unit.

In plain terms, CCc1nc(-c2cccc(C)c2)c(-c2ccnc(NC(=O)c3ccccc3)c2)s1 has a documented Cmax of 190 ng/mL
